tested_on: UniProt P18910
Sequence (P18910 29-1057): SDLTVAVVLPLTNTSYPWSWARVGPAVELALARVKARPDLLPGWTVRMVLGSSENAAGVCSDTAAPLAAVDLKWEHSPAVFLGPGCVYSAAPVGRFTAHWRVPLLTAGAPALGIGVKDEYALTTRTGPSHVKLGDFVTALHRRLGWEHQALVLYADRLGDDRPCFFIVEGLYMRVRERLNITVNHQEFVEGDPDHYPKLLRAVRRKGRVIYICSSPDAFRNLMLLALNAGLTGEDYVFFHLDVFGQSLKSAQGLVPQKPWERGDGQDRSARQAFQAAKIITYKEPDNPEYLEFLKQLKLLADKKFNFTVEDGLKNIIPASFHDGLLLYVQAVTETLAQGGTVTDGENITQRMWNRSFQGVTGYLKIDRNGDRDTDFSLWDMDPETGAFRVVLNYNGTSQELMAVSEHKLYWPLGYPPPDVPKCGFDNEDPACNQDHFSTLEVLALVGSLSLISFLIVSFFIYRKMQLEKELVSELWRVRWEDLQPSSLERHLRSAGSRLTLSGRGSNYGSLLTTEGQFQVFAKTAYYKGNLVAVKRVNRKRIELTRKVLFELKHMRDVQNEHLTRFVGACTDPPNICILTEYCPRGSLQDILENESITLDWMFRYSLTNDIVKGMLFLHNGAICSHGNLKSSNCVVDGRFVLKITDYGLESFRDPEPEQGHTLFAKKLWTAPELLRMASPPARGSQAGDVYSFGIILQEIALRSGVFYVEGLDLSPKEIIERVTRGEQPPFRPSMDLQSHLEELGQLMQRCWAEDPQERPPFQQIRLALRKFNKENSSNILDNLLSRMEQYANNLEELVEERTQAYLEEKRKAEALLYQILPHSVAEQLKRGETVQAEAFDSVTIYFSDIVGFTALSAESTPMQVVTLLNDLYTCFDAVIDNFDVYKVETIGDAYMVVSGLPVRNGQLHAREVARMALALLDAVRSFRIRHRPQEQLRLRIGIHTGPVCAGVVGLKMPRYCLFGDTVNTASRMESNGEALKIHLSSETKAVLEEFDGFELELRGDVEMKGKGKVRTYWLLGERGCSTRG
assay_procedure: Particulate guanylate cyclase assay in purified rat lung membranes
Format: biochemical
reported_conditions: GC activator ANP 10 nM, rat lung membranes, 10 μM ODQ
Protocol: Purified rat lung membranes (20 μg protein/200 μL) were incubated in Tris buffer with 10 mM phosphocreatine, 10 units/mL creatine phosphokinase, and 10 μM ODQ to inhibit NO-activated GC. The reaction took place with 0.3 mM MgCl, 0.5 mM MgATP, and 1 mM MgGTP, at 37 °C. The compound was added and 1 μM ANP used to activate pGC. cGMP formation was allowed to proceed for 10.5–12.5 min and was subsequently measured by radioimmunoassay.
observed_property: IC50 (µM)
Reply numerically in µM, unit not repeated.

Q: Provide the documented IC50 with UniProt P18910 as the system for O=[N+]([O-])c1ccc2nc(Nc3ccc(O)cc3)c(Nc3ccc(O)cc3)nc2c1 [Compound 10]
Ans: 21
